Exercise: state measured chromatographic logD for each of the compounds provided.
# TEST NAME: log D7.4 estimation by HPLC-based method
# Assay type: physicochemical
# CONDITION PARAMETERS: HPLC, Phenomenex Luna 5 μm Phenyl-Hexyl column, pH 7.4, HPLC, calibration C; read-out: logD7.4
Hey, just send me the number, nothing else.

Find the measured chromatographic logD of COc1cc(NCc2ccc(F)cc2)ccc1C(=O)NCC(C)C [28a] and report it. 3.79

Find the measured chromatographic logD of CC(C)CNC(=O)c1ccc(NCc2ccc(F)cc2)cc1N and report it. 2.75

Find the measured chromatographic logD of CCCNC(=O)c1ccc(NCc2ccc(F)cc2)cc1CC.Cl and report it. 3.24

Find the measured chromatographic logD of COc1cc(NCc2ccc(F)cc2)ccc1C(=O)NCc1ccc(F)cc1 [28b] and report it. 4.28

---

Exercise: state measured LD50 for each of the compounds provided.
# Test system: HEP-G2 cells
# TEST NAME: MTT cell viability assay, HEP-G2 cells
# CONDITION PARAMETERS: HEP-G2 cells, MTT assay, 24 h exposure; 50% reduction of viability
# Protocol: In addition to the activity, basic toxicological properties of the newly synthesized compounds were also investigated by using the 3-(4,5-dimethylthiazol-2-yl)-2,5-diphenyltetrazolium bromide (MTT) cell viability assay on mouse TAMH and human HEP-G2 hepatic cell lines (see Table 2). […] The calculated T/Ccorr. values were plotted against the log(concentration). The LD50 and LD25 values were determined by using GraphPad Prism 6. […]

Find the measured LD50 of CCOC(=O)Nc1ccc(NCc2ccc(F)cc2)nc1N [compound 1, flupirtine, reference compound] and report it. 547 ± 111 µM

Find the measured LD50 of CCCCNC(=O)c1c(C)cc(NCc2ccc(F)cc2)nc1OC [36a] and report it. >63 µM

Find the measured LD50 of CCCCNC(=O)c1ccc(NCc2ccc(F)cc2)nc1N and report it. 149 ± 11 µM

Find the measured LD50 of COc1cc(NCc2ccc(F)cc2)ccc1C(=O)NCC(C)C [28a] and report it. 42 ± 7 µM

Find the measured LD50 of Cc1cc(NCc2ccc(F)cc2)nc(N2CCOCC2)c1CNC(=O)OCC(C)C and report it. >125 µM

Find the measured LD50 of CC(C)CNC(=O)c1ccc(NCc2ccc(F)cc2)cc1N and report it. >125 µM

Find the measured LD50 of Cc1cc(N2CCOCC2)nc(N2CCOCC2)c1CNC(=O)Cc1cc(F)cc(F)c1 [55b] and report it. >250 µM

Find the measured LD50 of Cc1cc(N2CCOCC2)nc(N)c1CNC(=O)Cc1cc(F)cc(F)c1 and report it. >63 µM

Find the measured LD50 of Cc1cc(N2CCOCC2)nc(N2CCOCC2)c1CNC(=O)c1ccc(F)cc1 [55a] and report it. >31 µM

Find the measured LD50 of COc1nc(NCc2ccc(F)cc2)cc(C)c1C(=O)NCc1ccc(F)cc1 [36b] and report it. >16 µM

Find the measured LD50 of CCCNC(=O)c1ccc(NCc2ccc(F)cc2)cc1CC.Cl and report it. 77 ± 15 µM

Find the measured LD50 of COc1cc(NCc2ccc(F)cc2)ccc1C(=O)NCc1ccc(F)cc1 [28b] and report it. >8 µM
